Molecular target: T1, human soluble urokinase plasminogen activator receptor (suPAR) (human, UniProt Q03405 23-303, limits assumed)
T1 construct: Column head says only 'human'; also called human suPAR; hsuPAR
T1 sequence (Q03405 23-303 limits assumed): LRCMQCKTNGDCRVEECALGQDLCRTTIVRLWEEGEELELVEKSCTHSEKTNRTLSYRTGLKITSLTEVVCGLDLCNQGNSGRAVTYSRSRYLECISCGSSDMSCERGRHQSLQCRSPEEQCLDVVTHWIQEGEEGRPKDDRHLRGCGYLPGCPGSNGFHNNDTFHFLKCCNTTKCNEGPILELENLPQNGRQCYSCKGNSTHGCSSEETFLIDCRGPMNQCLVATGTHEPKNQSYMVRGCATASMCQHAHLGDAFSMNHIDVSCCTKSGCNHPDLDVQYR
Test: BLI (Octet) off-rate screen of scFv clones
// Criterion not met strictly below 0.004 s⁻¹ in koff; Criterion met otherwise

Challenge: Given the entry suPAR_DB02_G11 (scFv, V domains shown, scFv clone from phage display) VH: QVQLVQSGAEVKKPGASVKVSCKASGDTFTGYYMHWVRQAPGQGLEWMGWIDHEGGNTIYAQKFQGRVTMTRDTSTSTVYMELSSLRSEDTAVYYCARGYDVDWFVYWGQGTLVTVSS VL: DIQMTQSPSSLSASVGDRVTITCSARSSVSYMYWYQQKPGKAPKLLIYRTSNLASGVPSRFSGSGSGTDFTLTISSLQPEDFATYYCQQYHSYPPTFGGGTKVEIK , answer whether its koff meets or surpasses 0.004 s⁻¹.
Response given: Criterion met

Challenge: Given the entry suPAR_DB02_D08 (scFv, V domains shown, scFv clone from phage display) VH: QVQLVQSGAEVKKPGASVKVSCKASGYTFTNYYMHWVRQAPGQGLEWMGWIDHENGNTIYDQKFQGRVTMTRDTSTSTVYMELSSLRSEDTAVYYCARGYDVDWFVYWGQGTLVTVSS VL: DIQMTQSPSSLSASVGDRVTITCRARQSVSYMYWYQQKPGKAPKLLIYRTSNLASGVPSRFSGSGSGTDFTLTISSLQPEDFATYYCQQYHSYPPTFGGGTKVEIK , answer whether its koff meets or surpasses 0.004 s⁻¹.
Response given: Criterion not met

Challenge: Given the entry suPAR_DB02_G01 (scFv, V domains shown, scFv clone from phage display) VH: QVQLVQSGAEVKKPGASVKVSCKASGHTFTDYYMHWVRQAPGQGLEWMGWISPNSGGTNYAQKFQGRVTMTRDTSTSTVYMELSSLRSEDTAVYYCARGYDVDWFVYWGQGTLVTVSS VL: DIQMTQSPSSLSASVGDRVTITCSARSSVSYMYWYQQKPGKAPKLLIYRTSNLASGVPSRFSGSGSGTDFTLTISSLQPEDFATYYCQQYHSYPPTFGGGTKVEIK , answer whether its koff meets or surpasses 0.004 s⁻¹.
Response given: Criterion met

Challenge: Given the entry suPAR_DB02_E10 (scFv, V domains shown, scFv clone from phage display) VH: QVQLVQSGAEVKKPGASVKVSCKASGYTFTNYFMHWVRQAPGQGLEWMGWIDHENGNTIYDQKFQGRVTMTRDTSTSTVYMELSSLRSEDTAVYYCARGYDVDWFVYWGQGTLVTVSS VL: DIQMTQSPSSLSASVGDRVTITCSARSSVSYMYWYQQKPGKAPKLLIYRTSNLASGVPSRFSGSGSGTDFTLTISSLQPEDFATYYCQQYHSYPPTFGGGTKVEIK , answer whether its koff meets or surpasses 0.004 s⁻¹.
Response given: Criterion met

Challenge: Given the entry suPAR_DB02_F10 (scFv, V domains shown, scFv clone from phage display) VH: QVQLVQSGAEVKKPGASVKVSCKASGYTFTTYYMHWVRQAPGQGLEWMGWIDPEGGNTSYDQKFQGRVTMTRDTSTSTVYMELSSLRSEDTAVYYCARGYDVDWFVYWGQGTLVTVSS VL: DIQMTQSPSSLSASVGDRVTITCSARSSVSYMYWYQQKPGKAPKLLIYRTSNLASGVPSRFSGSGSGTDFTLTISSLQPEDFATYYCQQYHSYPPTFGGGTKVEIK , answer whether its koff meets or surpasses 0.004 s⁻¹.
Response given: Criterion not met
